Biological target: PI3K-δ (PI3K(p1108/p857) (h)) (Homo sapiens, UniProt O00329)
Sequence (O00329 whole entry): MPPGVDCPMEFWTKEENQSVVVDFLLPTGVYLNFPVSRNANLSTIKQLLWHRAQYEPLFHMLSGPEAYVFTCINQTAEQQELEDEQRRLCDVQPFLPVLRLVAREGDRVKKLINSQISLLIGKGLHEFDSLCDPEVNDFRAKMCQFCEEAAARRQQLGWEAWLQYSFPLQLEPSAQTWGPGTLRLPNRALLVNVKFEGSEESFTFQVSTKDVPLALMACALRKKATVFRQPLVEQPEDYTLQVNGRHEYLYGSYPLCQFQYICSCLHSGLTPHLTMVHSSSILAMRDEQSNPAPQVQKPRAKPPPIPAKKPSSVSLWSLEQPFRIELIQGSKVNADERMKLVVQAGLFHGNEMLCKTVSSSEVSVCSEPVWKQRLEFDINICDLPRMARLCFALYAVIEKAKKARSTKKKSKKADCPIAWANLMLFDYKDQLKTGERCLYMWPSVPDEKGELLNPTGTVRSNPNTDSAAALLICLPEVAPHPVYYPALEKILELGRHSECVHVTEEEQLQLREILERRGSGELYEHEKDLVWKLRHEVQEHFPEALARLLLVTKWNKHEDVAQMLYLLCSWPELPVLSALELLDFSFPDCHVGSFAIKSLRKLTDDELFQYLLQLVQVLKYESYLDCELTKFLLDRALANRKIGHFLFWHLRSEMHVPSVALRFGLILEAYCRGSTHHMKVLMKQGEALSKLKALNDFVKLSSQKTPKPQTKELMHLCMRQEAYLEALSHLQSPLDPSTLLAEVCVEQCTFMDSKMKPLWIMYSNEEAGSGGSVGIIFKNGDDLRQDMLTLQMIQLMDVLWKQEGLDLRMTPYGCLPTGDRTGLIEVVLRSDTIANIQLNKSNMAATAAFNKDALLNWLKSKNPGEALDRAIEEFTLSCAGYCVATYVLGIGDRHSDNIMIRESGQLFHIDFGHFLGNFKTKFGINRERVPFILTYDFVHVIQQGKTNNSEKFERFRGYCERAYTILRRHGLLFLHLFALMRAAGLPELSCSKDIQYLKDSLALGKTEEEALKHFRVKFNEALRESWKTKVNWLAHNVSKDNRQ
Sequence (P27986 whole entry partner): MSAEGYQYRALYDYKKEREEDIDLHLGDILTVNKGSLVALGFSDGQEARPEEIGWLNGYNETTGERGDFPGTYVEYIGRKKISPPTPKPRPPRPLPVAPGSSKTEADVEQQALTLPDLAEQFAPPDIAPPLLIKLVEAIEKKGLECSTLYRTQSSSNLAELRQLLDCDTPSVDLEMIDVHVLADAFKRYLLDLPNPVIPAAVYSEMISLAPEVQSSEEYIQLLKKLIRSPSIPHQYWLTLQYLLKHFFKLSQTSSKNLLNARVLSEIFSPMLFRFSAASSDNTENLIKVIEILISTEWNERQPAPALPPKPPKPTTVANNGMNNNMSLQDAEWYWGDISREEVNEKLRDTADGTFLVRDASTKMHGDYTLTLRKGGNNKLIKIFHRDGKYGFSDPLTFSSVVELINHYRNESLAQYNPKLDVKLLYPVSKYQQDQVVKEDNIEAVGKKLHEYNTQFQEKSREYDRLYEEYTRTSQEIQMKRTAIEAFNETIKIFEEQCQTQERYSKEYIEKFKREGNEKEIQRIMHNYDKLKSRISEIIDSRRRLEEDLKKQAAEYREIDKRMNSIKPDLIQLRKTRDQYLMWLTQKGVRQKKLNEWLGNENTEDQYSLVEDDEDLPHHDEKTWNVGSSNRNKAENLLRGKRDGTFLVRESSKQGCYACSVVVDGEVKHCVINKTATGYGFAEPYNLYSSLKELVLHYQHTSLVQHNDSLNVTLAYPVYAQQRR
Assay: Evaluation of inhibitory activity against PI3K-δ (HTRF kinase assay)
Type: biochemical
Conditions: compound at 0.1 μM; read-out: EXP_VALUE(% Inhibition) PI3K-δ 0.1 μM
For each of the compounds below, state its inhibition at 0.1 µM.
One number for each entry, in %.

Consider the reported inhibition at 0.1 µM for these compounds:
INSERT INTO assay_data (compound, measured_target, value_units, assay_result) VALUES
  ('C[C@H](Nc1ncnc2[nH]ccc(=O)c12)c1c(Cl)c2cccc(Oc3cccnc3)c2c(=O)n1-c1ccccc1', 'PI3K-δ (PI3K(p1108/p857) (h)) (Homo sapiens, UniProt O00329)', '%', 33),
  ('C[C@H](Nc1ncnc2[nH]ccc(=O)c12)c1c(Cl)c2cccc(SC(C)(C)C)c2c(=O)n1-c1ccccc1', 'PI3K-δ (PI3K(p1108/p857) (h)) (Homo sapiens, UniProt O00329)', '%', 12),
  ('C[C@H](Nc1ncnc2[nH]ccc(=O)c12)c1c(Cl)c2cccc(C(=O)Nc3ccccc3)c2c(=O)n1-c1ccccc1', 'PI3K-δ (PI3K(p1108/p857) (h)) (Homo sapiens, UniProt O00329)', '%', 92);

Then there is this compound:
Quick one: inhibition at 0.1 µM of C[C@H](Nc1ncnc2[nH]ccc(=O)c12)c1c(Cl)c2cccc([S+]([O-])c3ccccn3)c2c(=O)n1-c1ccccc1 (stereo partly shown) ? 16
